Reference for the values: ChEMBL document CHEMBL1201862

biological target: Heat shock protein HSP 90-alpha (Homo sapiens, UniProt P07900); assay type: functional, organism-based
Activity calls are given as the source filed them.
measurement-label: AC50

N=C(Nc1nc(-c2ccccn2)cc2ccccc12)c1ccccn1 : 2.76 µM (active)

*Q* What value of AC50 has been recorded for this entry: CCN1C/C(=C\c2cccc([N+](=O)[O-])c2)C(=O)/C(=C/c2cccc([N+](=O)[O-])c2)C1
*A* 8.11 µM (active)

*Q* If you can, please state the reported AC50 value of O=[N+]([O-])c1ccc(O)c(/C=N/Nc2ccccn2)c1 .
*A* 3.97 µM (active)

*Q* Quick check: AC50 of C(=C\c1nc2ccccc2[nH]1)/c1ccccc1 ?
*A* 44 µM (active)

*Q* If you can, please state the reported AC50 value of O=C(OCC(=O)N1CCN(C(=O)c2ccco2)CC1)c1cc(-c2ccccc2)nc2ccccc12 .
*A* 4.24 µM (active)
